Origin of the recorded values: BindingDB's records for doi:10.1016/S0960-894X(97)00125-X

# SYSTEM: Stromelysin-1 (MMP-3) (Rattus norvegicus) (UniProt P03957)
# Sequence (P03957 whole entry, looked up): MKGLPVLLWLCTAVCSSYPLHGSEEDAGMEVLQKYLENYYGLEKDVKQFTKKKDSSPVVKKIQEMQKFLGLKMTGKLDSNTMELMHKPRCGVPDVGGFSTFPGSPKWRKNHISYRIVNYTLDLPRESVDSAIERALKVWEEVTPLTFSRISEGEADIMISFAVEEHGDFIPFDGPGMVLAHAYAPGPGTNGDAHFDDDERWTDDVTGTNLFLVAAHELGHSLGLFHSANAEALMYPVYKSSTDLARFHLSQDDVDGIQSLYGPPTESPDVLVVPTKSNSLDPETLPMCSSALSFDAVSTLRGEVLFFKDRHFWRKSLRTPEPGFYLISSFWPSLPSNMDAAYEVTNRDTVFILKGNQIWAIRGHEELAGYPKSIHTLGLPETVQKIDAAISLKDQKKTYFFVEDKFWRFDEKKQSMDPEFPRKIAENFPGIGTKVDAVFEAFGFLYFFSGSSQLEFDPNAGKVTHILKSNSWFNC
# METHOD NOTES: Compound was tested for its inhibitory activity against Matrix metalloprotease-3 (MMP-3) in adjuvant arthritic rat model of rheumatoid arthritis
# maps each entry to its IC50
All answers are understood in nM, so give the number only.

# annotated cases, reported IC50 shown
CNC(=O)[C@H](Cc1cscn1)NC(=O)[C@H](CC(C)C)NC(=O)CS	430
CNC(=O)[C@H](Cc1c[nH]c2ccccc12)NC(=O)[C@H](CC(C)C)NC(=O)CS	430

query: Given the entry CNC(=O)[C@H](Cc1c[nH]c2ccccc12)NC(=O)[C@H](CSC)NC(=O)CS , what IC50 was observed with Stromelysin-1 (MMP-3) (Rattus norvegicus) (UniProt P03957)?
result: 810

###

# maps each entry to its IC50
# SYSTEM: Stromelysin-1 (MMP-3) (Rattus norvegicus)
# METHOD NOTES: Compound was tested for its inhibitory activity against Matrix metalloprotease-3 (MMP-3) in adjuvant arthritic rat model of rheumatoid arthritis
All answers are understood in µM, so give the number only.

query: Field request: IC50 | item: CNC(=O)[C@H](Cc1ccccc1)NC(=O)[C@H](CSC)NC(=O)CS
result: 0.65

query: Field request: IC50 | item: CNC(=O)[C@H](Cc1ccccc1)NC(=O)[C@H](C[S+](C)[O-])NC(=O)CS (some centres not stated)
result: 8.5

query: Field request: IC50 | item: CNC(=O)[C@H](Cc1ccccc1)NC(=O)[C@H](CC(C)C)NC(=O)CS
result: 2.6
